Test: Positive allosteric modulation of human C-terminal eYFP-tagged NY4 receptor expressed in HEK293 cells assessed as potentiation of neuropeptide Y-induced arrestin 3 recruitment by measuring neuropeptide Y EC50 at 30 uM after 30 mins by BRET assay (Rvb = 1380 nM)
assay.metric: EC50 (nM)
// return numeric value only (unit: nM, not printed)

Requested read-out: EC50. Entry: CC(C)(C)c1ccc(OC2CCCCC2O)cc1 (stereo unspecified)
443

###

Target: Neuropeptide Y receptor type 4 (Homo sapiens)
Sequence (P50391 whole entry C240R): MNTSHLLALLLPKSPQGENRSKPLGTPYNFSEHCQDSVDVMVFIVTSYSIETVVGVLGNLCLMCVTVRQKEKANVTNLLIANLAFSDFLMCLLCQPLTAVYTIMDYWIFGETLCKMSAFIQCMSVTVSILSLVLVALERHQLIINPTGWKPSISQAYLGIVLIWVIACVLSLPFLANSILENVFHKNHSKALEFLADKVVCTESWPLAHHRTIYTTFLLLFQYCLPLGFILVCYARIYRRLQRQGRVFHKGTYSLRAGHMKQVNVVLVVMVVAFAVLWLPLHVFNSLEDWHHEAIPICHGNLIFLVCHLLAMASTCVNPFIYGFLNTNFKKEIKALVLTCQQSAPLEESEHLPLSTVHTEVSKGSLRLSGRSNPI
Assay: Effect on neuropeptide Y-mediated displacement of 125I-pancreatic polypeptide from human C-terminal eYFP-tagged NY4 receptor expressed in HEK293 cell membranes assessed as neuropeptide Y pKi at 30 uM after 5 hrs by scintillation counting (Rvb = 7.9 +/- 0.2 No_unit)
assay.metric: Ki (nM)
// return numeric value only (unit: nM, not printed)

Requested read-out: Ki. Entry: CC(C)(C)c1ccc(OC2CCCCC2O)cc1 (stereo unspecified)
6.3

###

Experiment: Positive allosteric modulation of human NY4 receptor expressed in African green monkey COS7 cells co-expressing delta6Galphaqi4-myr assessed as potentiation of pancreatic polypeptide induced-calcium flux by measuring pancreatic polypeptide pEC50 at 30 uM treated at 20 secs post baseline detection followed by addition of pancreatic polypeptide
assay.metric: pEC50
pEC50 field: float, defined as -log10 of concentration (mol/L).

Requested read-out: pEC50. Entry: CC(C)(C)c1ccc(OC2CCCCC2O)cc1 (stereo unspecified)
10.40

###

Target: UniProt:P50391
Assay: Positive allosteric modulation of human C-terminal eYFP-tagged NY4 receptor expressed in HEK293 cells assessed as potentiation of peptide YY-induced arrestin 3 recruitment by measuring peptide YY EC50 at 30 uM after 30 mins by BRET assay (Rvb = 1600 nM)
assay.metric: EC50 (nM)
// return numeric value only (unit: nM, not printed)

Requested read-out: EC50. Entry: CC(C)(C)c1ccc(OC2CCCCC2O)cc1 (stereo unspecified)
845

###

Assay: Positive allosteric modulation of human C-terminal eYFP-tagged NY4 receptor expressed in HEK293 cells assessed as potentiation of neuropeptide Y-induced arrestin 3 recruitment by measuring neuropeptide Y pEC50 at 30 uM after 30 mins by BRET assay (Rvb = 5.9 +/- 0.15 No_unit)
assay.metric: pEC50
pEC50 field: float, defined as -log10 of concentration (mol/L).

Requested read-out: pEC50. Entry: CC(C)(C)c1ccc(OC2CCCCC2O)cc1 (stereo unspecified)
6.40

###

Assay: Positive allosteric modulation of human NY4 receptor expressed in African green monkey COS7 cells co-expressing delta6Galphaqi4-myr assessed as potentiation of neuropeptide Y induced-calcium flux by measuring neuropeptide Y EC50 at 30 uM treated at 20 secs post baseline detection followed by addition of neuropeptide Y after 140 secs by Fluo2-
assay.metric: pEC50
pEC50 field: float, defined as -log10 of concentration (mol/L).

Requested read-out: pEC50. Entry: CC(C)(C)c1ccc(OC2CCCCC2O)cc1 (stereo unspecified)
9.40

###

Biological target: UniProtKB P49146
Sequence (P49146 whole entry, the tested form may be a part): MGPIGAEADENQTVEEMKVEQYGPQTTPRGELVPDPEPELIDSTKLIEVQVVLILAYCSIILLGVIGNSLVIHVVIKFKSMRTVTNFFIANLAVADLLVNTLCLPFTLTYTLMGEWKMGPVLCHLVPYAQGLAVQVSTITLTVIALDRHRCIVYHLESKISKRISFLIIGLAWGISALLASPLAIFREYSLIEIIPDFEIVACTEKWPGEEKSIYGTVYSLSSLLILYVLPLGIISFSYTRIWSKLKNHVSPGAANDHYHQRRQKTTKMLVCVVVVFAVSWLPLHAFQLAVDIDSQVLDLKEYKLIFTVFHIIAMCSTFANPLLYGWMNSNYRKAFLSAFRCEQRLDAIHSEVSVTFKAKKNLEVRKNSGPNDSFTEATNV
Assay: ASSAY_NAME: ChEMBL_1668994 (CHEMBL4018882) DESCRIPTION: Positive allosteric modulation of human C-terminal eYFP-fused human NY2 receptor expressed in African green monkey COS7 cells co-expressing delta6Galphaqi4-myr assessed as potentiation of neuropeptide Y-mediated Ca2+ flux by measuring pancreatic polypeptide EC50 at 30 uM treated at 20 secs post baseline detection followed by addition of …
assay.metric: pEC50
pEC50 field: float, defined as -log10 of concentration (mol/L).

Requested read-out: pEC50. Entry: CC(C)(C)c1ccc(OC2CCCCC2O)cc1 (stereo unspecified)
10.20
